Data credit: ChEMBL document CHEMBL4340545

Assay: Ratio of drug concentration in liver to plasma of Sprague-Dawley rat at 30 mg/kg, po dissolved in 40% HP-beta-CD measured after 360 mins by LC-MS/MS analysis
Format: ADME, organism-based
assay_endpoint: Kp at 6 h

Quick check: Kp at 6 h of COc1ccc(Oc2ccc(N3CC(=O)N([C@@H](CC4CCN(C(=O)C(C)C)CC4)c4nc5ccc(C)cc5n4C)C3=O)cc2)cc1 ?
15

###

Experiment: Terminal half life in Sprague-Dawley rat at 1 mg/ml/kg, iv dissolved in 10% HP-beta-CD measured after 60 to 360 min after administration
Type: ADME, organism-based
Conditions: in vivo, 1 mg/kg, read-out: beta t1/2
assay_endpoint: half-life (h)
// units = h; emit number, no label

Quick check: half-life of Cc1ccc2nc([C@H](CC3CCN(C(=O)C(C)C)CC3)N3C(=O)CN(c4ccc(Oc5ccccc5)cc4)C3=O)n(C)c2c1 ?
2.07

###

# IC50 listing for each entry below
Biological target: Bile acid receptor (Homo sapiens, UniProt Q96RI1)
Experiment: Antagonist activity at human FXR expressed in Huh7 cells assessed as inhibition of CDCA-induced FXR response element driven luciferase activity after 24 hrs
Format: cell-based

Cc1ccc2nc([C@H](CC3CCN(C(=O)C(C)C)CC3)N3C(=O)CN(c4ccc(Oc5ccccc5)cc4)C3=O)n(C)c2c1	< 0.001 nM
Cc1ccc2nc([C@H](CC3CCN(C(=O)C(C)C)CC3)N3CCN(c4ccc(Oc5ccccc5)cc4)C3=O)n(C)c2c1	799 nM
Cc1ccc2nc([C@H](CC3CCN(C(=O)C(C)C)CC3)NC(=O)Nc3ccc(Oc4ccccc4)cc3)n(C)c2c1	> 20000 nM

Quick check: IC50 of Cc1ccc2nc([C@H](CC3CCN(C(=O)C(C)C)CC3)N3C(=O)CN(c4ccc(Oc5ccc(Cl)cc5)cc4)C3=O)n(C)c2c1 ?
9.3 nM

Quick check: IC50 of Cc1ccc2nc([C@@H](CC3CCN(C(=O)C(C)C)CC3)N3C(=O)CN(c4ccc(Oc5ccccc5)cc4)C3=O)n(C)c2c1 ?
41 nM

Quick check: IC50 of Cc1ccc2nc([C@H](Cc3ccc(Cl)cc3)N3C(=O)CN(c4ccc(Oc5ccccc5)cc4)C3=O)n(C)c2c1 ?
> 20000 nM

###

Experiment: Cmax in Sprague-Dawley rat at 30 mg/5 ml/kg, po dissolved in 40% HP-beta-CD
Assay type: ADME, organism-based
Set-up: dose 5 ml/kg, route oral
Conditions: in vivo, 30 mg/kg
assay_endpoint: Cmax (ng/mL)
// units = ng/mL; emit number, no label

Quick check: Cmax of Cc1ccc2nc([C@H](CC3CCN(C(=O)C(C)C)CC3)N3C(=O)CN(c4ccc(Oc5ccccc5)cc4)C3=O)n(C)c2c1 ?
53.4

###

# AUC(0-t) at 6 h listing for each entry below
Test: AUC (0 to 360 mins) in Sprague-Dawley rat at 1 mg/ml/kg, iv dissolved in 10% HP-beta-CD by LC-MS/MS analysis
Type: ADME, organism-based
Design: dose 1 mg/ml/kg, time < 6 hr, route intravenous
Conditions: in vivo, 1 mg/kg
// units = ng·h/mL; emit number, no label

COc1ccc(Oc2ccc(N3CC(=O)N([C@@H](CC4CCN(C(=O)C(C)C)CC4)c4nc5ccc(C)cc5n4C)C3=O)cc2)cc1	292

Attention now turns to another entry.
Quick check: AUC(0-t) at 6 h of Cc1ccc2nc([C@H](CC3CCN(C(=O)C(C)C)CC3)N3C(=O)CN(c4ccc(Oc5ccccc5)cc4)C3=O)n(C)c2c1 ?
182

###

Biological target: Bile acid receptor (Homo sapiens)
Assay: Antagonist activity at GST-tagged FXR LBD (unknown origin) assessed as inhibition of GW4064-induced fluorecein-labeled SRC2-2 coactivator recruitment by Lanthascreen TR-FRET assay
# IC50 listing for each entry below
// units = nM; emit number, no label

Here is how some compounds turned out for IC50.
Cc1ccc2nc([C@H](CC3CCN(C(=O)C(C)C)CC3)N3C(=O)CN(c4ccc(Oc5ccc(Cl)cc5)cc4)C3=O)n(C)c2c1	27
Cc1ccc2nc([C@H](CC3CCN(C(=O)C(C)C)CC3)N3C(=O)CN(c4ccc(Oc5ccc(F)cc5)cc4)C3=O)n(C)c2c1	35
Cc1ccc2nc([C@H](Cc3ccc(C#N)cc3)N3C(=O)CN(c4ccc(Oc5ccccc5)cc4)C3=O)n(C)c2c1	7100
COc1ccc(Oc2ccc(N3CC(=O)N([C@@H](CC4CCN(C(=O)C(C)C)CC4)c4nc5ccc(C)cc5n4C)C3=O)cc2)cc1	7
Cc1ccc2c(c1)nc([C@H](CC1CCN(C(=O)C(C)C)CC1)N1C(=O)CN(c3ccc(Oc4ccccc4)cc3)C1=O)n2C	51
Cc1ccc2nc([C@H](CC3CCN(C(=O)NC(C)C)CC3)N3C(=O)CN(c4ccc(Oc5ccccc5)cc4)C3=O)n(C)c2c1	1500
Cc1ccc2nc([C@H](CC3CCN(C(=O)C(C)C)CC3)N3CCN(c4ccc(Oc5ccccc5)cc4)C3=O)n(C)c2c1	4800
Cc1ccc2nc([C@H](CC3CCN(C(=O)C(C)C)CC3)N3C(=O)CN(c4ccc(Oc5ccccc5)cc4)C3=O)n(-c3ccc(F)cc3)c2c1	2900
Cc1ccc2nc([C@H](CC3CCN(C(=O)C(C)C)CC3)N3C(=O)CN(c4ccc(OC5CCCCC5)cc4)C3=O)n(C)c2c1	180

Attention now turns to another entry.
Quick check: IC50 of Cc1ccc2nc([C@@H](CC3CCN(C(=O)C(C)C)CC3)N3C(=O)CN(c4ccc(Oc5ccccc5)cc4)C3=O)n(C)c2c1 ?
2700

###

Biological target: Bile acid receptor (Homo sapiens)
Assay: Antagonist activity at GST-tagged FXR LBD (unknown origin) assessed as inhibition of GW4064-induced fluorecein-labeled SRC2-2 coactivator recruitment by Lanthascreen TR-FRET assay
assay_endpoint: IC50 (µM)
// units = µM; emit number, no label

Here is how some molecules turned out for IC50.
Cc1ccc2nc([C@H](Cc3ccc(C(=O)NC(C)C)cc3)N3C(=O)CN(c4ccc(Oc5ccccc5)cc4)C3=O)n(C)c2c1	38.7
Cc1ccc2nc([C@H](CC3CCN(C(=O)C(C)C)CC3)N3C(=O)CN(c4ccc(Oc5ccccc5)cc4)C3=O)n(CC(C)C)c2c1	0.33
Cc1ccc2nc([C@H](Cc3ccc(C(N)=O)cc3)N3C(=O)CN(c4ccc(Oc5ccccc5)cc4)C3=O)n(C)c2c1	27.3

// map Cc1ccc2nc([C@H](CC3CCN(S(=O)(=O)C(C)C)CC3)N3C(=O)CN(c4ccc(Oc5ccccc5)cc4)C3=O)n(C)c2c1 to recorded IC50 (system: Bile acid receptor (Homo sapiens))
126

// map Cc1ccc2nc([C@H](CC3CCN(C(=O)C(C)C)CC3)N3CC(=O)N(c4ccc(Oc5ccccc5)cc4)CC3=O)n(C)c2c1 to recorded IC50 (system: Bile acid receptor (Homo sapiens))
15

// map CCN(CC)C(=O)c1ccc(C[C@@H](c2nc3ccc(C)cc3n2C)N2C(=O)CN(c3ccc(Oc4ccccc4)cc3)C2=O)cc1 to recorded IC50 (system: Bile acid receptor (Homo sapiens))
2.8

###

Test: Drug excretion in Sprague-Dawley rat urine at 1 mg/ml/kg, iv dissolved in 10% HP-beta-CD by LC-MS/MS analysis
Type: ADME, organism-based
Settings: 1 mg/kg, read-out: Drug excretion
# dose excreted listing for each entry below
// units = %; emit number, no label

COc1ccc(Oc2ccc(N3CC(=O)N([C@@H](CC4CCN(C(=O)C(C)C)CC4)c4nc5ccc(C)cc5n4C)C3=O)cc2)cc1	0.23

Quick check: dose excreted of Cc1ccc2nc([C@H](CC3CCN(C(=O)C(C)C)CC3)N3C(=O)CN(c4ccc(Oc5ccccc5)cc4)C3=O)n(C)c2c1 ?
0.64

###

Target: Bile acid receptor (Homo sapiens)
Sequence (Q96RI1 whole entry): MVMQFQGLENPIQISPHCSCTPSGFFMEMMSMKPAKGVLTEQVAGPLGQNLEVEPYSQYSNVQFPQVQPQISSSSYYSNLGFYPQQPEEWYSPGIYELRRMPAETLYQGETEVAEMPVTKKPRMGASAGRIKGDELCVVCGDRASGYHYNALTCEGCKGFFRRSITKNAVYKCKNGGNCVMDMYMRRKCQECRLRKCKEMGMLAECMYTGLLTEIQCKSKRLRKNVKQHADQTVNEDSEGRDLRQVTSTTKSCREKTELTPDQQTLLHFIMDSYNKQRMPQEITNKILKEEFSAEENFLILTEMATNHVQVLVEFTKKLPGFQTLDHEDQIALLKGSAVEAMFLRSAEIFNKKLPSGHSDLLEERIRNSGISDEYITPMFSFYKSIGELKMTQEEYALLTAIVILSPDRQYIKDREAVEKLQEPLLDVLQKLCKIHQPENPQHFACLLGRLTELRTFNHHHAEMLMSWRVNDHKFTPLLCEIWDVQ
Assay: Antagonist activity at human FXR expressed in Huh7 cells assessed as inhibition of CDCA-induced FXR response element driven luciferase activity after 24 hrs
Assay type: cell-based
# pIC50 listing for each entry below
Value format note: pIC50 is -log10 of concentration (mol/L); just state the number.

Here is how some compounds turned out for pIC50.
Cc1ccc2nc([C@H](Cc3ccccc3)N3C(=O)CN(c4ccc(Oc5ccccc5)cc4)C3=O)n(C)c2c1	7.09
Cc1ccc2nc([C@H](Cc3ccc(C(=O)NC(C)C)cc3)N3C(=O)CN(c4ccc(Oc5ccccc5)cc4)C3=O)n(C)c2c1	5.57
CCN(CC)C(=O)c1ccc(C[C@@H](c2nc3ccc(C)cc3n2C)N2C(=O)CN(c3ccc(Oc4ccccc4)cc3)C2=O)cc1	5.96

Quick check: pIC50 of Cc1ccc2nc([C@H](CC3CCN(C(=O)C(C)C)CC3)N3C(=O)CN(c4ccc(Oc5ccccc5)cc4)C3=O)n(-c3ccc(F)cc3)c2c1 ?
6.01

Quick check: pIC50 of Cc1ccc2nc([C@H](Cc3ccc(C(N)=O)cc3)N3C(=O)CN(c4ccc(Oc5ccccc5)cc4)C3=O)n(C)c2c1 ?
5.20
